src = patent US12539292B2

// values below are reported DC50
Assay system: BRM (Homo sapiens)
Construct: In-Cell Western Screen of BRM Degradation in SW1573 Cells; endogenous in cells; host or cells: SW1573
Assay comment: In-cell Western screen of BRM degradation in SW1573 cells (Dmax and DC50)
Type: cell-based
Experimental conditions: BRM degradation, SW1573 cells; Table 2D; read-out: *DC50
Endpoint name: DC50

[[record]]
molecule = "Cc1ncsc1-c1ccc([C@H](C)NC(=O)[C@@H]2C[C@@H](O)CN2C(=O)[C@@H](c2cc(OCCN3CC[C@@H](OCCc4cc(N5C6CCC5CN(c5cc(-c7ccccc7O)nnc5N)C6)ccn4)C[C@@H]3C)no2)C(C)C)cc1 (racemic) [compound 567]"
assay_system = "BRM (Homo sapiens)"
result = "2.5 to 10 nM"

[[record]]
molecule = "Cc1ncsc1-c1cnc([C@H](C)NC(=O)[C@@H]2C[C@@H](O)CN2C(=O)[C@H](c2cc(N3CCC(CN4CCC(O[C@H]5C[C@H](Oc6cc(N7C8CCC7CN(c7cc(-c9ccccc9O)nnc7N)C8)ccn6)C5)CC4)CC3)no2)C(C)C)cn1 [compound 589]"
assay_system = "BRM (Homo sapiens)"
result = "> 30 nM"

[[record]]
molecule = "Cc1ncsc1-c1ccc([C@H](C)NC(=O)[C@@H]2C[C@@H](O)CN2C(=O)[C@H](c2cc(N3CCC(OC4CCN(CC5CC(CN6CCC([C@H](C)n7cc(-c8cc(-c9ccccc9O)nnc8N)cn7)CC6)C5)CC4)CC3)no2)C(C)C)cc1 (single isomer, unassigned) [compound 593]"
assay_system = "BRM (Homo sapiens)"
result = "< 2.5 nM"

[[record]]
molecule = "Cc1ncsc1-c1ccc([C@H](C)NC(=O)[C@@H]2C[C@@H](O)CN2C(=O)[C@H](c2cc(N3CCC(OC4CCN([C@H]5C[C@H](CN6CCOC7(CCN(c8cc(-c9ccccc9O)nnc8N)CC7)C6)C5)CC4)CC3)no2)C(C)C)cc1 [compound 615]"
assay_system = "BRM (Homo sapiens)"
result = "> 30 nM"

[[record]]
molecule = "CC(C)[C@@H](C(=O)N1C[C@H](O)C[C@H]1C(=O)N[C@@H](C)c1ccc(-n2ccnc2N)cc1)c1cc(N2CCC(CN3CCC(O[C@H]4C[C@H](Oc5cc(N6C7CCC6CN(c6cc(-c8ccccc8O)nnc6N)C7)ccn5)C4)CC3)CC2)no1 [compound 621]"
assay_system = "BRM (Homo sapiens)"
result = "< 2.5 nM"

[[record]]
molecule = "Cc1ncsc1-c1ccc([C@H](C)NC(=O)[C@@H]2C[C@@H](O)CN2C(=O)[C@@H](c2cc(OCCCOc3cc(N4C5CCC4CN(c4cc(-c6ccccc6O)nnc4N)C5)ccn3)no2)C(C)C)cc1 [compound 614]"
assay_system = "BRM (Homo sapiens)"
result = "< 2.5 nM"

[[record]]
molecule = "Cc1ncsc1-c1ccc([C@H](C)NC(=O)[C@@H]2C[C@@H](O)CN2C(=O)[C@H](c2cc(OCC[C@@H]3CCN(C[C@H]4C[C@H](Oc5cc(N6C7CCC6CN(c6cc(-c8ccccc8O)nnc6N)C7)ccn5)C4)[C@@H](C)C3)no2)C(C)C)cc1 (racemic) [compound 581]"
assay_system = "BRM (Homo sapiens)"
result = "< 2.5 nM"

[[record]]
molecule = "Cc1cc([C@H](C(=O)N2C[C@H](O)C[C@H]2C(=O)N[C@@H](C)c2ccc(-c3scnc3C)cc2)[C@H](C)COCCn2cc(-c3cc(-c4ccccc4O)nnc3N)cn2)on1 [compound 538]"
assay_system = "BRM (Homo sapiens)"
result = "> 30 nM"


---

// values below are reported Dmax
Assay system: BRM (Homo sapiens)
Construct: In-Cell Western Screen of BRM Degradation in SW1573 Cells; endogenous in cells; host or cells: SW1573
Assay comment: In-cell Western screen of BRM degradation in SW1573 cells (Dmax and DC50)
Format: cell-based
Experimental conditions: SW1573; % degraded; when tested at the top concentration of between 0.3 and 10 μM; read-out: BRM Dmax (%)
Endpoint name: Dmax

[[record]]
structure_smiles_string = "Cc1ncsc1-c1ccc([C@H](C)NC(=O)[C@@H]2C[C@@H](O)CN2C(=O)[C@@H](c2cc(OCC[C@H]3CC[C@H](O[C@H]4C[C@H](Oc5cc(N6C7CCC6CN(c6cc(-c8ccccc8O)nnc6N)C7)ccn5)C4)CC3)no2)C(C)C)cn1"
endpoint_name = "Dmax"
result = "> 75%"

[[record]]
structure_smiles_string = "Cc1ncsc1-c1ncc([C@H](C)NC(=O)[C@@H]2C[C@@H](O)CN2C(=O)[C@@H](c2cc(OCCN3CCC(O[C@H]4C[C@H](Oc5cc(N6C7CCC6CN(c6cc(-c8ccccc8O)nnc6N)C7)ccn5)C4)CC3)no2)C(C)C)cn1"
endpoint_name = "Dmax"
result = "> 75%"


---

Assay system: BRM (Homo sapiens)
Construct: In-Cell Western Screen of BRM Degradation in SW1573 Cells; endogenous in cells; host or cells: SW1573
Assay comment: In-cell Western screen of BRM degradation in SW1573 cells (Dmax and DC50)
Format: cell-based
Experimental conditions: BRM degradation, SW1573 cells; read-out: DC50
Endpoint name: DC50

[[record]]
compound = "Cc1ncsc1-c1ccc([C@H](C)NC(=O)[C@@H]2C[C@@H](O)CN2C(=O)[C@H](c2cc(OCCN3CCC(O[C@H]4C[C@H](Oc5cc(N6C7CCC6CN(c6cc(-c8ccccc8O)nnc6N)C7)ccn5)C4)CC3)no2)C(C)C)cn1 [compound 179]"
result = "> 30 nM"

[[record]]
compound = "CC(C)[C@H](C(=O)N1C[C@H](O)C[C@H]1C(=O)N[C@@H](C)c1ccc(-c2ccnn2C)cc1)c1cc(OCCN2CCN(CCOc3cc(N4C5CCC4CN(c4cc(-c6ccccc6O)nnc4N)C5)ccn3)CC2)no1 [compound 263]"
result = "2.5 to 10 nM"

[[record]]
compound = "CC(C)[C@@H](C(=O)N1C[C@H](O)C[C@H]1C(=O)N[C@@H](C)c1ccc(-c2ccnn2C)cc1)c1cc(OCCN2CCN(CCOc3cc(N4C5CCC4CN(c4cc(-c6ccccc6O)nnc4N)C5)ccn3)CC2)no1 [compound 264]"
result = "< 2.5 nM"

[[record]]
compound = "Cc1ncsc1-c1ccc([C@@H](NC(=O)[C@@H]2C[C@@H](O)CN2C(=O)[C@H](c2cc(OCCN3CCN(CCOc4cc(N5C6CCC5CN(c5cc(-c7ccccc7O)nnc5N)C6)ccn4)CC3)no2)C(C)C)C(F)F)cc1 [compound 173]"
result = "> 30 nM"


---

// values below are reported DC50
Assay system: BRM (Homo sapiens, UniProt P51531)
Construct: In-Cell Western Screen of BRM Degradation in SW1573 Cells; endogenous in cells; host or cells: SW1573
Sequence (P51531 whole entry): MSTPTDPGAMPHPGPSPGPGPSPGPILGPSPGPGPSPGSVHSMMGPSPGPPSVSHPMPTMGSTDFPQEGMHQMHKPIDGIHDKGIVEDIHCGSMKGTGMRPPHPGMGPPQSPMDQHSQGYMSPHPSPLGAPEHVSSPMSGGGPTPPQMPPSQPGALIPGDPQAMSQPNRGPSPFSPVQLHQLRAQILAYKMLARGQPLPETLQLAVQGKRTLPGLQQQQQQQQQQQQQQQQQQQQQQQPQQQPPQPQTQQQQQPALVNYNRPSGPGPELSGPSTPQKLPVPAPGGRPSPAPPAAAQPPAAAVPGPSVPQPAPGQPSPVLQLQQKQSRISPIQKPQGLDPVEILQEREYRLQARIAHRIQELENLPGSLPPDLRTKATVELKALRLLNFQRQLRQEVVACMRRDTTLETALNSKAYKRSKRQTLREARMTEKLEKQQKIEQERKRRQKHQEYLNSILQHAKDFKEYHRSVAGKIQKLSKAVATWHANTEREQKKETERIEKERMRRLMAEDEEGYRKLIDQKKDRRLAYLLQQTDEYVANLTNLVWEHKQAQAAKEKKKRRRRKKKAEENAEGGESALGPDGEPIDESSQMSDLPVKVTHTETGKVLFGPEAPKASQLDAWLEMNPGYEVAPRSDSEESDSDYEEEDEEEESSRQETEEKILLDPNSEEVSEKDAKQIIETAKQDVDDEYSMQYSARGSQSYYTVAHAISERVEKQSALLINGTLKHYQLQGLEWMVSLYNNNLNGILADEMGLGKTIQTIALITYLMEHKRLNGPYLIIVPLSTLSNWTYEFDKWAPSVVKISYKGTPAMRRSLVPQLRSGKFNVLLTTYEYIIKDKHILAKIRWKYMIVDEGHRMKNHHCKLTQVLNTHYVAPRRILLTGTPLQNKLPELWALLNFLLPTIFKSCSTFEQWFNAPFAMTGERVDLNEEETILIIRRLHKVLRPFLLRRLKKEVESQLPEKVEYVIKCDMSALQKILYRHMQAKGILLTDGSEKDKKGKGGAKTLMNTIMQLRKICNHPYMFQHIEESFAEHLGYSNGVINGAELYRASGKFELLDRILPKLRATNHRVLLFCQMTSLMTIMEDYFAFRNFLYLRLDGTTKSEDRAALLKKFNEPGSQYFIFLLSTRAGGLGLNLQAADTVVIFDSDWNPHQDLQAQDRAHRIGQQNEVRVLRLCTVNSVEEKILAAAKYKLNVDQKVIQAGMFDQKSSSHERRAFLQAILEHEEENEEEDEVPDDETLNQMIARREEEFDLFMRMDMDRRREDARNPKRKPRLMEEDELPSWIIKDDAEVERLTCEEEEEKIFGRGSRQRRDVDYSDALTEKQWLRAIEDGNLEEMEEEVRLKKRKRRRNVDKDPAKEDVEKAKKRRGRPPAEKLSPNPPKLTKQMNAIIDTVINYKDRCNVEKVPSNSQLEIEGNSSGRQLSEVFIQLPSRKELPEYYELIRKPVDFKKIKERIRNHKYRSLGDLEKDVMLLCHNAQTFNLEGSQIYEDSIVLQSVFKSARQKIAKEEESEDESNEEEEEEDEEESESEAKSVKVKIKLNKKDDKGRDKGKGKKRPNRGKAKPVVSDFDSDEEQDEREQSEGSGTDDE
Assay comment: In-cell Western screen of BRM degradation in SW1573 cells (Dmax and DC50)
Assay type: cell-based
Experimental conditions: BRM degradation, SW1573 cells; read-out: DC50
Endpoint name: DC50

[[record]]
molecule = "Cc1ncsc1-c1ccc([C@H](C)NC(=O)[C@@H]2C[C@@H](O)CN2C(=O)[C@@H](c2cc(OCCN3CCN(CCOc4cc(N5C6CCC5CN(c5cc(-c7ccccc7O)nnc5N)C6)ccn4)CC3)no2)C(C)C)cc1"
assay_system = "BRM (Homo sapiens, UniProt P51531)"
result = "< 2.5 nM"

[[record]]
molecule = "Cc1nccn1-c1ccc([C@H](C)NC(=O)[C@@H]2C[C@@H](O)CN2C(=O)[C@H](c2cc(N3CCC(CN4CCC(O[C@H]5C[C@H](C#C[C@@H](C)n6cc(-c7cc(-c8ccccc8O)nnc7N)cn6)C5)CC4)CC3)no2)C(C)C)cc1 (single isomer, unassigned)"
assay_system = "BRM (Homo sapiens, UniProt P51531)"
result = "2.5 to 10 nM"

[[record]]
molecule = "CC(=O)NCc1ncsc1-c1ccc([C@H](C)NC(=O)[C@@H]2C[C@@H](O)CN2C(=O)C(c2cc(OCCN3CCN(CCOc4cc(N5C6CCC5CN(c5cc(-c7ccccc7O)nnc5N)C6)ccn4)CC3)no2)C(C)C)cc1 (stereo partly shown)"
assay_system = "BRM (Homo sapiens, UniProt P51531)"
result = "10 to 30 nM"

[[record]]
molecule = "COC[C@@H](NC(=O)[C@@H]1C[C@@H](O)CN1C(=O)[C@@H](c1cc(N2CCC(CN3CCC(O[C@H]4C[C@H](Oc5cc(N6C7CCC6CN(c6cc(-c8ccccc8O)nnc6N)C7)ccn5)C4)CC3)CC2)no1)C(C)C)c1ccc(-c2scnc2C)cc1"
assay_system = "BRM (Homo sapiens, UniProt P51531)"
result = "10 to 30 nM"

[[record]]
molecule = "Cc1ncsc1-c1ccc([C@H](C)NC(=O)[C@@H]2C[C@@H](O)CN2C(=O)[C@H](c2cc(N3CCC4(CCN(CC5CCN(C[C@H]6C[C@H](Oc7cc(N8C9CCC8CN(c8cc(-c%10ccccc%10O)nnc8N)C9)ccn7)C6)CC5)CC4)CC3)no2)C(C)C)cc1"
assay_system = "BRM (Homo sapiens, UniProt P51531)"
result = "> 30 nM"

[[record]]
molecule = "Cc1ncsc1-c1ccc([C@H](C)NC(=O)[C@@H]2C[C@@H](O)CN2C(=O)[C@H](c2cc(OCCOCCOCCOCCn3cc(-c4cc(-c5ccccc5O)nnc4N)cn3)no2)C(C)C)cc1"
assay_system = "BRM (Homo sapiens, UniProt P51531)"
result = "> 30 nM"

[[record]]
molecule = "Cc1ncsc1-c1ccc(CNC(=O)[C@@H]2C[C@@H](O)CN2C(=O)[C@@H](NC(=O)COCCOCCOCCOc2cccc(N3C[C@H]4C[C@@H]3CN4c3cc(-c4ccccc4O)nnc3N)n2)C(C)(C)C)cc1"
assay_system = "BRM (Homo sapiens, UniProt P51531)"
result = "> 30 nM"

[[record]]
molecule = "Cc1ncsc1-c1ccc([C@@H](NC(=O)[C@@H]2C[C@@H](O)CN2C(=O)[C@@H](c2cc(OCCN3CCN(CCOc4cc(N5C6CCC5CN(c5cc(-c7ccccc7O)nnc5N)C6)ccn4)CC3)no2)C(C)C)C(=O)N(C)c2ccccc2)cc1"
assay_system = "BRM (Homo sapiens, UniProt P51531)"
result = "< 2.5 nM"

[[record]]
molecule = "COCC[C@@H](NC(=O)[C@@H]1C[C@@H](O)CN1C(=O)[C@@H](c1cc(N2CCC(CN3CCC(O[C@H]4C[C@H](Oc5cc(N6C7CCC6CN(c6cc(-c8ccccc8O)nnc6N)C7)ccn5)C4)CC3)CC2)no1)C(C)C)c1ccc(-c2scnc2C)cc1"
assay_system = "BRM (Homo sapiens, UniProt P51531)"
result = "10 to 30 nM"

[[record]]
molecule = "Cc1ncsc1-c1ccc([C@H](C)NC(=O)[C@@H]2C[C@@H](O)CN2C(=O)[C@@H](c2cc(OC/C=C/c3ccc(O[C@H]4C[C@H](Oc5cc(N6C7CCC6CN(c6cc(-c8ccccc8O)nnc6N)C7)ccn5)C4)cn3)no2)C(C)C)cn1"
assay_system = "BRM (Homo sapiens, UniProt P51531)"
result = "< 2.5 nM"

[[record]]
molecule = "Cc1ncsc1-c1ccc([C@H](C)NC(=O)[C@@H]2C[C@@H](O)CN2C(=O)[C@@H](c2cc(CCCN3CCC(O[C@H]4C[C@H](Oc5cc(N6C7CCC6CN(c6cc(-c8ccccc8O)nnc6N)C7)ccn5)C4)CC3)no2)C(C)C)cc1"
assay_system = "BRM (Homo sapiens, UniProt P51531)"
result = "< 2.5 nM"

[[record]]
molecule = "Cc1cc([C@H](C(=O)N2C[C@H](O)C[C@H]2C(=O)N[C@@H](C)c2ccc(-c3scnc3C)cc2)[C@@H](C)COCCOc2cc(N3C4CCC3CN(c3cc(-c5ccccc5O)nnc3N)C4)ccn2)on1"
assay_system = "BRM (Homo sapiens, UniProt P51531)"
result = "10 to 30 nM"

[[record]]
molecule = "Cc1ncsc1-c1ccc([C@H](C)NC(=O)[C@@H]2C[C@@H](O)CN2C(=O)[C@@H](c2cc(OCCN3C[C@@H]4C[C@H]3CN4CCOc3cc(N4C5CCC4CN(c4cc(-c6ccccc6O)nnc4N)C5)ccn3)no2)C(C)C)cc1"
assay_system = "BRM (Homo sapiens, UniProt P51531)"
result = "< 2.5 nM"

[[record]]
molecule = "Cc1ncsc1-c1ccc([C@H](C)NC(=O)[C@@H]2C[C@@H](O)CN2C(=O)[C@@H](c2cc(OCCN3CCN(CCC#CCn4cc(-c5cc(-c6ccccc6O)nnc5N)cn4)CC3)no2)C(C)C)cc1"
assay_system = "BRM (Homo sapiens, UniProt P51531)"
result = "< 2.5 nM"

[[record]]
molecule = "Cc1ncsc1-c1ccc(CNC(=O)[C@@H]2C[C@@H](O)CN2C(=O)[C@@H](NC(=O)COCCOCCOCCOCCOCCOCCOCCn2cc(-c3cc(-c4ccccc4O)nnc3N)cn2)C(C)(C)C)cc1"
assay_system = "BRM (Homo sapiens, UniProt P51531)"
result = "> 30 nM"

[[record]]
molecule = "Cc1ncsc1-c1ccc([C@H](C)NC(=O)[C@@H]2C[C@@H](O)CN2C(=O)C(C(C)C)n2cc(OCCN3CCN(CCOc4cc(N5C6CCC5CN(c5cc(-c7ccccc7O)nnc5N)C6)ccn4)CC3)cn2)cc1 (stereo in doubt) [compound 39]"
assay_system = "BRM (Homo sapiens, UniProt P51531)"
result = "> 30 nM"

